Measured melting point, listed per entry for reference.

# Molecule, melting point
measured = [
    ("C=Cc1[nH]c(=O)c2c(ccc3nc(Nc4c(Cl)cccc4Cl)n(C)c32)c1C", "> 300 °C"),
    ("COC(c1cc(C)no1)c1ccccc1COc1cc(Cl)ccc1Cl (stereo unspecified)", "78.5 to 79.5 °C"),
    ("CSc1ccc(/C(=C/CO)c2ccc(I)cc2)cc1", "91 to 95 °C"),
    ("O=C1CCCN1C(=O)NCCCN1CC=C(c2ccc(Cl)c(Cl)c2)CC1", "136 °C"),
    ("CN(C)C(=O)n1oc(CCl)c(Cl)c1=O", "107 to 108 °C"),
    ("CCOC(=O)c1cn(-c2nc(N)c(F)cc2F)c2c(F)c(F)c(F)c(NCc3ccccc3)c2c1=O", "176 to 180 °C"),
    ("CC(C)C/C=C\\CCCCCCCCCC(=O)O", "12.5 °C"),
    ("CCOC(=N)c1sc2cc(Cl)ccc2c1O", "226 °C"),
    ("CC12C=CCC1C1CCC3CC(=O)CCC3C1CC2 (stereo unspecified)", "51 to 54 °C"),
    ("ClCN1C=C(Cl)C(Cl)=CN1", "69 to 70 °C"),
    ("COC(=O)Cc1coc(-c2cc(C(C)(C)C)c(O)c(C(C)(C)C)c2)n1", "126 to 128 °C"),
]
